These measurements were taken from ChEMBL document CHEMBL4425166.

test: Clearance in rat by LC/MS/MS analysis; assay type: ADME; settings: in vivo
metricName: clearance (mL/min/kg)
Answers are plain numbers, in mL/min/kg.

Problem: Fill in: clearance of CC(=O)N1CCN(c2ccc(NC(=O)Cc3cnc(-c4ccnc(F)c4)c(C)c3)nc2)CC1 is ___
Result: 5.35

###

Give clearance for every item shown.
assay: Clearance in Balb/c mouse at 2 mg/kg, iv after 24 hrs by LC/MS/MS analysis; assay type: ADME, organism-based; conditions: in vivo
Numbers only, in mL/min/kg.

{"smilesStr": "CC(=O)N1CCN(c2ccc(NC(=O)Cc3cnc(-c4ccnc(F)c4)c(C)c3)nc2)CC1", "metricName": "clearance", "measuredResult": 5.33}

Consider now this further compound.
Problem: Fill in: clearance of COc1ccc2nc(NC(=O)Cc3ccc(-c4ccncc4)cc3)sc2c1 is ___
Result: 2.49
